Data credit: paper PMC11096368

assay: Phase 1 multiple ascending dose (MAD) pharmacokinetics; assay type: in vivo, human; conditions: human, plasma, oral, MAD cohorts; read-out: Arithmetic mean T1/2 (converted)
OBSERVED PROPERTY: half-life (h)
Please give a number only; it is taken to be in h.

Enquiry: I am curious: what half-life value has been reported for CCN(CC)C(=O)c1ccccc1S(=O)(=O)NCC(=O)Nc1ccc(O)cc1 [SRP-001] ?
Return: 5.57

====

Test: Phase 1 multiple ascending dose (MAD) pharmacokinetics
Format: in vivo, human
Details: human, plasma, oral, 500 mg, MAD, 500 mg dose, Day 1; read-out: Geometric mean T1/2 (converted)
Description: A randomized, double-blind, placebo-controlled Phase 1 trial (ClinicalTrials.gov identifier: NCT05484414) (02/08/2022) was conducted to assess the safety, tolerability, food effect, pharmacokinetics (PK), and pharmacodynamics (PD) of single and multiple ascending doses of SRP-001 (Quotient Sciences, Miami FL USA; Fig. 3h - k and Methods). […]
OBSERVED PROPERTY: half-life
# do not omit the unit; it follows the number

Enquiry: State the recorded half-life for this entry: CCN(CC)C(=O)c1ccccc1S(=O)(=O)NCC(=O)Nc1ccc(O)cc1 [SRP-001]
Return: 3.06 h
